Attribution: PubChem BioAssay (NCI)

# Test system: HOP-92 NSCLC
# PROCEDURE_SUMMARY: NCI-60 one-dose screen, 48 h
# SETTINGS: 10 µM unless noted
The panel holds about 83,000 compounds, 20% with a hit somewhere; the sample as a whole holds those more often. Calls of active or inactive are those of the source. The calls were made as follows: active = growth percent below 10; inactive = the rest.
One label from this list, please: class 1 for active, class 0 for inactive

Here are 5 compounds together with their reported answers.
Cc1ccc(-n2cc(/C=C/C(=O)c3ccc(S(C)(=O)=O)cc3)c(-c3ccc(S(C)(=O)=O)cc3)n2)cc1 ... class 0
O=C1CSC(=O)N1Cc1cc2ccccc2nc1Cl ... class 0
CCc1ccc(NC(=O)N[C@@H](Cc2cccc(F)c2)C(=O)N[C@@H]2C(=O)N3CCC[C@H]3C(=O)N3CCCC[C@H]3C(=O)N[C@@H](C)C(=O)N3C[C@H](C)C[C@H]3C(=O)O[C@H]2C)c(F)c1 ... class 1
COc1ccc(NC(=O)Cn2cc(CN3C(=O)c4ccc([N+](=O)[O-])cc4C3=O)nn2)cc1 ... class 0
CC1(C)CC[C@]2(C(=O)N3CCCN(CC#N)CC3)CC[C@]3(C)C(=CC[C@@H]4[C@@]5(C)CC[C@H](O)C(C)(C)[C@@H]5CC[C@]43C)[C@H]2C1 ... class 0

### Prompt Which outcome did this test record for the compound `Cn1cc(-c2nn3c(=O)cc(-c4ccccc4)nc3s2)c2cc(F)ccc21` ?
### Response class 1

### Prompt # fetch the recorded call for `Cc1ccc(-c2cc(-c3ccc(N(C)C)cc3)n3c(n2)nc2ccccc23)cc1` here
### Response class 0

### Prompt // outcome(item) with item = `O=C(N/N=C\c1ccc(Cl)cc1)c1ccc2nc(-c3ccc(Br)cc3)[nH]c2c1`
### Response class 1
